- test-details: Fluorescent biotin dissociation assay
- Format: binding
- condition-parameters: 50° C.
Kindly supply the reported kdiss, dissociation rate constant values for the records listed here.

Name the reported kdiss, dissociation rate constant value associated with the molecule ChiAVD(I117Y): Residues 38-58 moved from AVR4/5 to avidin and mutation I117Y in 1-3 subunit interface (SEQ ID NO:16) (protein, listed as Gallus gallus) MVHATSPLLLLLLLSLALVAPGLSARKCSLTGKWTNDLGSNMTIGAVNSRGEFTGTYITAVADNPGNITLSPLLGIQHKRASQPTFGFTVNWKFSESTTVFTGQCFIDRNGKEVLKTMWLLRSSVNDIGDDWKATRVGYNIFTRLRTQKE
7.33 10^−4 s^−1

Param item = AVR4/5(C122S)-b: AVR4/5(C122S) produced in E. coli, non-glycosylated, three additional N-terminal residues (Gln-Thr-Val) (protein, UniProt P56734 25-150, looked up, variant C122S, N-terminal Gln-Thr-Val extension) Avidin-related protein 4/5: ARKCSLTGKWTNNLGSIMTIRAVNSRGEFTGTYLTAVADNPGNITLSPLLGIQHKRASQPTFGFTVHWNFSESTTVFTGQCFIDRNGKEVLKTMWLLRSSVNDISYDWKATRVGYNNFTRLSTVEE ; retrieve measured kdiss, dissociation rate constant.
6.20 10^−4 s^−1

Could you share which kdiss, dissociation rate constant value was measured for AVR4/5(C122S): AVR4/5 with the cysteine forming intermonomeric disulphide bridges mutated to serine; insect cell produced (protein, UniProt P56734 25-150, looked up, variant C122S) Avidin-related protein 4/5: ARKCSLTGKWTNNLGSIMTIRAVNSRGEFTGTYLTAVADNPGNITLSPLLGIQHKRASQPTFGFTVHWNFSESTTVFTGQCFIDRNGKEVLKTMWLLRSSVNDISYDWKATRVGYNNFTRLSTVEE ?
7.88 10^−4 s^−1

I would be grateful if you could share the reported kdiss, dissociation rate constant for ChiAVD: Chimeric avidin: residues 38-58 moved from AVR4/5 to avidin (SEQ ID NO:15) (protein, listed as Gallus gallus) MVHATSPLLLLLLLSLALVAPGLSARKCSLTGKWTNDLGSNMTIGAVNSRGEFTGTYITAVADNPGNITLSPLLGIQHKRASQPTFGFTVNWKFSESTTVFTGQCFIDRNGKEVLKTMWLLRSSVNDIGDDWKATRVGINIFTRLRTQKE .
8.00 10^−4 s^−1
